- Assayed target: Tyrosine-protein kinase Blk (Homo sapiens)
- Sequence (P51451 whole entry): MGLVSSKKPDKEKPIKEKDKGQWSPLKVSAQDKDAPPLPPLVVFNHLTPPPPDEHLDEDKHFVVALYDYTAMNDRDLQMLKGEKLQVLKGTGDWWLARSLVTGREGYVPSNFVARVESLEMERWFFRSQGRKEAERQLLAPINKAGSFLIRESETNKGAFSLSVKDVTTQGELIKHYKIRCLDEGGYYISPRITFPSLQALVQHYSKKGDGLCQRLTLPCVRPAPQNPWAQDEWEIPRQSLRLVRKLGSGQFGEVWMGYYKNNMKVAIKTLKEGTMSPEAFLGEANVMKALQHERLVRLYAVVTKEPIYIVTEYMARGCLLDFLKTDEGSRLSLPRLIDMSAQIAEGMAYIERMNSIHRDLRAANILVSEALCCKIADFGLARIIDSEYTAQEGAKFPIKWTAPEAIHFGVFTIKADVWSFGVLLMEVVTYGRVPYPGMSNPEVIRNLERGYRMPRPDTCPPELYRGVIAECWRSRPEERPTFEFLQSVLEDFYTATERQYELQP
pIC50: −log10 of the molar value.

| Smiles str | pIC50 |
| --- | --- |
| N#CCNC(=O)c1ccc(-c2ccnc(Nc3ccc(N4CCOCC4)cc3)n2)cc1 | < 6.00 |

----------
- Assayed target: Glycogen synthase kinase-3 alpha (Homo sapiens, UniProt P49840)
- Sequence (P49840 whole entry): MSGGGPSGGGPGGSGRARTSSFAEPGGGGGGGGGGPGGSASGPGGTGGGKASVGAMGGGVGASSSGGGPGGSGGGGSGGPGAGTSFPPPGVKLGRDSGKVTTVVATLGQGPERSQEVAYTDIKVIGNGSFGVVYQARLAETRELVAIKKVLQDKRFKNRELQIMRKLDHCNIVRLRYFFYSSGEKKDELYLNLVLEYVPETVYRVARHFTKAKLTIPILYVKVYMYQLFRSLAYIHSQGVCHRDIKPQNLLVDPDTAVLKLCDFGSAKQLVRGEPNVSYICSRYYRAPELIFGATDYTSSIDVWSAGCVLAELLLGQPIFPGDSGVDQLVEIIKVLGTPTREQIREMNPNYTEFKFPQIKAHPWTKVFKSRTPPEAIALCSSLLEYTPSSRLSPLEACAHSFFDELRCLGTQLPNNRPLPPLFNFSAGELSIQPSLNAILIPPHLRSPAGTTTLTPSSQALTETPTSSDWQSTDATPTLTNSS

| Compound | IC50 |
| --- | --- |
| N#CCNC(=O)c1ccc(-c2ccnc(Nc3ccc(N4CCOCC4)cc3)n2)cc1 [MOMELOTINIB] | > 1000 nM |

----------
- Assayed target: Aurora kinase B (Homo sapiens)
pIC50: −log10 of the molar value.

| Compound | pIC50 |
| --- | --- |
| N#CCNC(=O)c1ccc(-c2ccnc(Nc3ccc(N4CCOCC4)cc3)n2)cc1 [MOMELOTINIB] | > 6.00 |

----------
- Assayed target: Mitogen-activated protein kinase kinase kinase 9 (Homo sapiens)
- Sequence (P80192 whole entry): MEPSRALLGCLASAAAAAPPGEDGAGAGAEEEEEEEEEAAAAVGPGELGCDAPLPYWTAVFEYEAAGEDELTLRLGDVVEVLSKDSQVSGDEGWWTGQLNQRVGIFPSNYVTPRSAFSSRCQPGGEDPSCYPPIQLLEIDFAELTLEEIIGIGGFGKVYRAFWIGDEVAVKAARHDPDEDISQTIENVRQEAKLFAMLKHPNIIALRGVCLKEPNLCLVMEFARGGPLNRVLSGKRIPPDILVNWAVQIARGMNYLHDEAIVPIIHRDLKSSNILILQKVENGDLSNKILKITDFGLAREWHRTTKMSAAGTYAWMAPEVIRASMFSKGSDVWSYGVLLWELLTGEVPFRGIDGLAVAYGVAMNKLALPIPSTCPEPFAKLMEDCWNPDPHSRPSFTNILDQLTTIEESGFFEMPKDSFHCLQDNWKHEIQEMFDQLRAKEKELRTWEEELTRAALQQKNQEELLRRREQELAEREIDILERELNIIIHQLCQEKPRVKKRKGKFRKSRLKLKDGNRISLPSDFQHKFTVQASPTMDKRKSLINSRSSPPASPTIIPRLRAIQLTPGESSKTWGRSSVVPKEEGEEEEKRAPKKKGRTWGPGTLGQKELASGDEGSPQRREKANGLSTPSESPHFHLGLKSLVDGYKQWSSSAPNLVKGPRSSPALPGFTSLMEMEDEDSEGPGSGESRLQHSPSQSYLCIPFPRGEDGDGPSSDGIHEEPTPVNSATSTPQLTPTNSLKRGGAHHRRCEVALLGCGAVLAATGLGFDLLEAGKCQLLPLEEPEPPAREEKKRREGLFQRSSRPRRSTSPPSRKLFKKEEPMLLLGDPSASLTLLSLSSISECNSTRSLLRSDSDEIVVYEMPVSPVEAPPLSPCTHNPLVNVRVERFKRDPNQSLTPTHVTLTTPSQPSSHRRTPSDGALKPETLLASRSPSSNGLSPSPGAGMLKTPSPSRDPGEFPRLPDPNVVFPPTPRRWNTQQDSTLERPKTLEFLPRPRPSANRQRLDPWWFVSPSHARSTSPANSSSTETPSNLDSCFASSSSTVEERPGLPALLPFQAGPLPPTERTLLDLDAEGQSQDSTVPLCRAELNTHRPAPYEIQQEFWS
- Run description: Inhibition of MAP3K9 (unknown origin)

| Smiles str | Assayed target | IC50 |
| --- | --- | --- |
| N#CCNC(=O)c1ccc(-c2ccnc(Nc3ccc(N4CCOCC4)cc3)n2)cc1 | Mitogen-activated protein kinase kinase kinase 9 (Homo sapiens) | < 1 µM |

----------
- Assayed target: Serine/threonine-protein kinase N1 (Homo sapiens)
- Sequence (Q16512 whole entry): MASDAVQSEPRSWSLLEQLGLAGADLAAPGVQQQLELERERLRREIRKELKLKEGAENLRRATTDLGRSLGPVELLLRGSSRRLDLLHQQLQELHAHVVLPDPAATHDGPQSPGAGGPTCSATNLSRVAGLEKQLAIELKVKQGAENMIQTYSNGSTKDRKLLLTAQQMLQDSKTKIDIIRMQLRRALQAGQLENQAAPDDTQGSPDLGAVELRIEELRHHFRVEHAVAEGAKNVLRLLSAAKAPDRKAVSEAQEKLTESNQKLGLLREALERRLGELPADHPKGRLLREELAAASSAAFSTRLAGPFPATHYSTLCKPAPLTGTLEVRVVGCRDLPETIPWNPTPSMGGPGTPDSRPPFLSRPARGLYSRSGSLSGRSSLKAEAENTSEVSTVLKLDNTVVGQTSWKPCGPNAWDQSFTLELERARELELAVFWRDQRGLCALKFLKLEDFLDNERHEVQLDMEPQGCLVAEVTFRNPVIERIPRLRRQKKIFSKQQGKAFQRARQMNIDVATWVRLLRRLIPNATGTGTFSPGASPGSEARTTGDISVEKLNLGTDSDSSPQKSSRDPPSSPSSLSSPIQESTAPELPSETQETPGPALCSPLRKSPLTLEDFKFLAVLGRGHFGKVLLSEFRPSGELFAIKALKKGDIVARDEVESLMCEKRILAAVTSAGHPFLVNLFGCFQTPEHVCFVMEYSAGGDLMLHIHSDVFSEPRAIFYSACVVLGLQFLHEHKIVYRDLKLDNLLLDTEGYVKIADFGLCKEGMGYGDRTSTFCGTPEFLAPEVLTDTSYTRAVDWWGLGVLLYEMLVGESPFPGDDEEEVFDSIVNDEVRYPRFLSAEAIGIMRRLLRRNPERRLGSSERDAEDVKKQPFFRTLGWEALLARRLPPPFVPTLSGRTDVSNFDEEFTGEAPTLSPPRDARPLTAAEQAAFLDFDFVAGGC
Readout label: IC50

| Smiles str | Assayed target | Readout label | Observed result |
| --- | --- | --- | --- |
| N#CCNC(=O)c1ccc(-c2ccnc(Nc3ccc(N4CCOCC4)cc3)n2)cc1 | Serine/threonine-protein kinase N1 (Homo sapiens) | IC50 | < 1 µM |

----------
- Test system: BaF3
- Run description: Antiproliferative activity against mouse BaF3 cells harboring MPLW515L measured after 72 hrs by Alamar blue staining based analysis
- Type: functional, cell-based
- Test parameters: BaF3, 72 h
pIC50: −log10 of the molar value.

| Smiles str | Assayed target | pIC50 |
| --- | --- | --- |
| N#CCNC(=O)c1ccc(-c2ccnc(Nc3ccc(N4CCOCC4)cc3)n2)cc1 | BaF3 | 6.70 |

----------
- Assayed target: cAMP-dependent protein kinase catalytic subunit alpha (Homo sapiens, UniProt P17612)
- Run description: Inhibition of PRKACA (unknown origin)
pIC50: −log10 of the molar value.
Readout label: pIC50

| Molecule | Assayed target | Observed result |
| --- | --- | --- |
| N#CCNC(=O)c1ccc(-c2ccnc(Nc3ccc(N4CCOCC4)cc3)n2)cc1 [MOMELOTINIB] | cAMP-dependent protein kinase catalytic subunit alpha (Homo sapiens, UniProt P17612) | < 6.00 |

----------
- Assayed target: Dual specificity protein kinase CLK1 (Homo sapiens)
- Sequence (P49759 whole entry): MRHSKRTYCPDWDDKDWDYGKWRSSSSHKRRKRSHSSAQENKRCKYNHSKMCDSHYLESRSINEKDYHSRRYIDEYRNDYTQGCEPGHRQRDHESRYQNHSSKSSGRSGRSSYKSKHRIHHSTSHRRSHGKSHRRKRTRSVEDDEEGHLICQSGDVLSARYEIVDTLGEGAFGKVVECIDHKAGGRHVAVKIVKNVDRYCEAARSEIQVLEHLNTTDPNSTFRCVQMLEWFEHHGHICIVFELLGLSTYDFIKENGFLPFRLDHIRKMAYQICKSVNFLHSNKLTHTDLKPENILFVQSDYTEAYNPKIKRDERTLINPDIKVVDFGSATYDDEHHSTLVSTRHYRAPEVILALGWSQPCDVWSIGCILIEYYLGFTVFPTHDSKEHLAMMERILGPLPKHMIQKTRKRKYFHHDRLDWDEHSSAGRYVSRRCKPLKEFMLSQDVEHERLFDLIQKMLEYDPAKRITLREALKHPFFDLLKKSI
Readout label: IC50

| Smiles str | Assayed target | Observed result |
| --- | --- | --- |
| N#CCNC(=O)c1ccc(-c2ccnc(Nc3ccc(N4CCOCC4)cc3)n2)cc1 | Dual specificity protein kinase CLK1 (Homo sapiens) | < 1 µM |

----------
- Assayed target: BDNF/NT-3 growth factors receptor (Homo sapiens, UniProt Q16620)
- Sequence (Q16620 whole entry): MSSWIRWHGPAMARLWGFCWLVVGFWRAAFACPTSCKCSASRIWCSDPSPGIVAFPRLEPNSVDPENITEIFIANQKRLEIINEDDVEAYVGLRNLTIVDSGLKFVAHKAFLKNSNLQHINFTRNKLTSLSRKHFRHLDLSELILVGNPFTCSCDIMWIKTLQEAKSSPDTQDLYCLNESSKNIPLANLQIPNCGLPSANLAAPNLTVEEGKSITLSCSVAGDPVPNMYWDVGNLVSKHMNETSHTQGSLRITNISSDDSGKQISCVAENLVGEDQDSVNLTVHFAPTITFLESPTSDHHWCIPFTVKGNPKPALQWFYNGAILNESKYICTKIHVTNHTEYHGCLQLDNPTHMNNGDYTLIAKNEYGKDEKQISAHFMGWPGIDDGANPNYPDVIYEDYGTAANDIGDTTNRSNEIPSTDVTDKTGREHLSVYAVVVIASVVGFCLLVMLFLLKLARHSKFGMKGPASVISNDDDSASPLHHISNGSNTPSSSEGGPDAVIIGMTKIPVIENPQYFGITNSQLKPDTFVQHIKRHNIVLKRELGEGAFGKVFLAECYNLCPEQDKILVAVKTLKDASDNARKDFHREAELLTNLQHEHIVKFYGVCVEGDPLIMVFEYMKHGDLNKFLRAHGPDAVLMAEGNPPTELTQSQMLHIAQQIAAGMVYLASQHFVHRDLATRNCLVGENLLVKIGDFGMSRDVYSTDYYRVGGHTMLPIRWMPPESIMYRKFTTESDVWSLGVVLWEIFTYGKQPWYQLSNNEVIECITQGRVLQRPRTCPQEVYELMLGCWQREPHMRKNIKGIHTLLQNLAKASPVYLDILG
pIC50: −log10 of the molar value.

| Smiles str | pIC50 |
| --- | --- |
| N#CCNC(=O)c1ccc(-c2ccnc(Nc3ccc(N4CCOCC4)cc3)n2)cc1 | > 6.00 |

----------
- Assayed target: Casein kinase I isoform gamma-2 (Homo sapiens)
- Sequence (P78368 whole entry, canonical isoform): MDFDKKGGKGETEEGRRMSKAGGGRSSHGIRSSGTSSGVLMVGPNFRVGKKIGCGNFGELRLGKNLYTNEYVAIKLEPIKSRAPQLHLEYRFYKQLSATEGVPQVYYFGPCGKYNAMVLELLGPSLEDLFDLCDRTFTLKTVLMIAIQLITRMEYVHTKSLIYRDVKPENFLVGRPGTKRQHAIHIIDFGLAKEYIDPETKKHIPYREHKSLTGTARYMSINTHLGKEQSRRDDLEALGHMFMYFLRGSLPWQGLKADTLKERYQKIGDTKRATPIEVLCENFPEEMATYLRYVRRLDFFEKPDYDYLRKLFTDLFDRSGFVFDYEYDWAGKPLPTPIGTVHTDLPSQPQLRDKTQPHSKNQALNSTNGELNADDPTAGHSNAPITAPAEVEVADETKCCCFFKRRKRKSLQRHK
- Run description: Inhibition of CSNK1G2 (unknown origin)

| Molecule | Assayed target | IC50 |
| --- | --- | --- |
| N#CCNC(=O)c1ccc(-c2ccnc(Nc3ccc(N4CCOCC4)cc3)n2)cc1 [MOMELOTINIB] | Casein kinase I isoform gamma-2 (Homo sapiens) | > 1000 nM |
